# assayed-system: hmGlu5 (Homo sapiens)
# Construct: expressed in transfected cells; host or cells: HEK 293A
# Sequence (P41594 21-1212): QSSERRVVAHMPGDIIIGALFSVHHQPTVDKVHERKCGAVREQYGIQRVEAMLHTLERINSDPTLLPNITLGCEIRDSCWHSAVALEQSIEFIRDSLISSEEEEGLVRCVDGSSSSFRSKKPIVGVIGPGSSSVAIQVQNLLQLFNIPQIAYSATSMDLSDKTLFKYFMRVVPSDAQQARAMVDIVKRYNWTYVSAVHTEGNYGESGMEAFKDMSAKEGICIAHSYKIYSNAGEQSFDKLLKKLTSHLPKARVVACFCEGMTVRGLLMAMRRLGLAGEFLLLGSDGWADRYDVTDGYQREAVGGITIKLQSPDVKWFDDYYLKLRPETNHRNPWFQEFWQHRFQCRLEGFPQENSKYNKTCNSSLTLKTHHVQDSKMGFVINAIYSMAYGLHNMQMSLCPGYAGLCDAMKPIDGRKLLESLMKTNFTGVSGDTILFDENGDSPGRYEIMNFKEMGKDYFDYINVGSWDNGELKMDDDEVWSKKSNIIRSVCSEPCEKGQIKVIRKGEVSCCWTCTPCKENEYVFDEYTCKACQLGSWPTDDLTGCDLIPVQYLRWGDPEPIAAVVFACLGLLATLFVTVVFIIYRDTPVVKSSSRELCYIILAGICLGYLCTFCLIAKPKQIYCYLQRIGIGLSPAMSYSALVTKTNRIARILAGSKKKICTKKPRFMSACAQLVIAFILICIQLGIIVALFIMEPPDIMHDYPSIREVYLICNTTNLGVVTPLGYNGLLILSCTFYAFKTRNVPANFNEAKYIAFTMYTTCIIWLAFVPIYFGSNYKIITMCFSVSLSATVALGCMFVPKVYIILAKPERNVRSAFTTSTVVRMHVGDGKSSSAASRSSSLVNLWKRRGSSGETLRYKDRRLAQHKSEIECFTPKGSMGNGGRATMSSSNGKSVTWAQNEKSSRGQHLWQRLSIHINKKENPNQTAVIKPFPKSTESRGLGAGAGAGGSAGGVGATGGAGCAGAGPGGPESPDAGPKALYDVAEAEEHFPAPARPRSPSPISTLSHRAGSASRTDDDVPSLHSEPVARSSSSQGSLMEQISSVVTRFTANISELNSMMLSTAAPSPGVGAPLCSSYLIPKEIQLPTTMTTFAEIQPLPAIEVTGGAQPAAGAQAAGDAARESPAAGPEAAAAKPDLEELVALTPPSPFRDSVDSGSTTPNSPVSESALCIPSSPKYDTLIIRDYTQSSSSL
# test-method-notes: mGlu5 Ca2+ flux assay in HEK 293A cells (negative allosteric modulation of glutamate EC80 response)
# Type: cell-based
# condition-summary: HEK293-A; % Glu max at 30 μM; read-out: hmGlu5 NAM Emin (%)
measurement-type: remaining activity at 30 µM (%)

Please review the entries below; each comes with its answer.
Reported remaining activity at 30 µM ( Cc1nc(-c2noc(-c3ccccc3F)n2)cc(-c2cncc(F)c2)c1F ) = 34

The compound Cc1cc(-c2cncc(F)c2)cc(-c2noc(-c3ccc(F)cn3)n2)n1 showed remaining activity at 30 µM equal to 2

// recorded remaining activity at 30 µM for Cc1ccncc1-c1cc(-c2noc(-c3ccc(F)cn3)n2)nc(C)c1F : 3

Looking up Cc1nc(-c2noc(-c3ccc(F)cn3)n2)cc(-c2cncc(C#N)c2)c1F , I found its remaining activity at 30 µM recorded as 3

A: Cc1ccncc1-c1cc(-c2noc(C(F)c3ccccc3)n2)nc(C)c1F (stereo not drawn)
B: Cc1csc(-c2noc(-c3cc(-c4cncc(F)c4)c(F)c(C)n3)n2)n1
C: COc1c(-c2cncc(F)c2)cc(-c2n[nH]c(-c3ccc(F)cc3)n2)nc1C
D: Cc1nc(-c2noc(-c3cscn3)n2)cc(-c2cncc(F)c2)c1F
E: Cc1nc(-c2noc(-c3ccc(F)cn3)n2)cc(-c2ccc(C(F)(F)F)nc2)c1F
Request: Please list these in order of increasing remaining activity at 30 µM. Thank you! To answer, arrange all of the labels according to the requested order.
Result: B, C, A, D, E
